Reference source for all entries: patent US20230265187A1

Target: T1, His-tagged cynomolgus monkey TIGIT (Acro Biosystems #TIT-05223) (cynomolgus monkey, UniProt A0A7N9I9V4 89-209)
T1 construct: Bought protein; also called cyno TIGIT; cynomolgus TIGIT; not shown: His tag
T1 sequence (A0A7N9I9V4 entry or part of it): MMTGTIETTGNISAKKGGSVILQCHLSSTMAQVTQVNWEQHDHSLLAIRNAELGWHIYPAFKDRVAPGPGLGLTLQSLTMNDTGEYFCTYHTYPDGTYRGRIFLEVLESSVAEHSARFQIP
Test: ELISA, coated His-TIGIT, 1 ug/ml

{"columns": ["binder", "Elisa OD450 [OD450]"],
 "data": [
  ["43586p1.1.H8 (scFv, V domains shown) VH: EVQLLESGGGLVQPGGSLRLSCAASGFTFIDFWMSWVRQAPGKGLEWVSAISWIGDTYYYADSVKGRFTVSRDNSKNTVYLQMNSLRAEDTAVYYCAKHWTVYQYGMDVWGQGTTVTVSS VL: QSVLTQPPSASGTPGQRVIISCSGSTSDIETKYVSWYQQLPGTAPKLLIYGNHQRPSGVPDRFSGSKSGTSASLAISGLQSEDEADYYCTAWDNTLKSWVFGGGTKLTVL", 1.25],
  ["43645p1.C11 (scFv, V domains shown) VH: EVQLLESGGGLVQPGGSLRPSCATSGFTFSSYWMSWVRQAPGKGLEWVSGIHISDSTYYADSVKGRFTISRDNSKNTLYLQMNSLRAEDTAVYYCAKGHTVLQYGMDVWGQGTTVTVSS VL: QSGLTQPPSASGTPGQRVTISCSGDISNTRNNYVSWYQQLPGTAPKLLIYGNHQRPSGVPDRFSGSKSATSASLAISGLQSEDEADYYCGTWDNTLNAWVFGGGTKLTVL", 1.65]
]}
